Biological target: rat M1 (Rattus norvegicus (Rat))
Sequence (P08482 whole entry): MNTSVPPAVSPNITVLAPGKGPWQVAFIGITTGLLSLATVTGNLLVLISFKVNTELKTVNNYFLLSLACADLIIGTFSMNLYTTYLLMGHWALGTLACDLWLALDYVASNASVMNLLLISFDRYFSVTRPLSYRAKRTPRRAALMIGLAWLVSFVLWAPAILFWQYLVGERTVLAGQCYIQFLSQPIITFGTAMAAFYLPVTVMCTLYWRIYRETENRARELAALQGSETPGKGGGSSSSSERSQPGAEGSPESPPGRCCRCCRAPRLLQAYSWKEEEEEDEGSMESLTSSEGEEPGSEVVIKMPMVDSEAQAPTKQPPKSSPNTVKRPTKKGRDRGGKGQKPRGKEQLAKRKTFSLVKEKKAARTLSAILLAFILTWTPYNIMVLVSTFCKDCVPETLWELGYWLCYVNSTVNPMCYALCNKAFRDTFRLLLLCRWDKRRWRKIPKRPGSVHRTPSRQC
Experiment: M1 PAM Assay (FLIPR intracellular calcium), rat M1
Conditions: positive allosteric modulation in presence of EC20 of acetylcholine; second value of cell
Experimental: [The procedure below names another species; the source lists this species under the same test.] The assay study the effect of several concentrations of test compounds on basal or acetylcholine-stimulated Ca^2+ levels using FLIPR. CHO human M1 are plated the day before the experiments at 2×10^5 cells/ml in PDL BioCoat 96 well black/clear plate (Becton 35 4640). […] A signal test to check background fluorescence and basal fluorescence signal is performed. […]
pEC50: −log10 of the molar value.
Classify as follows. Reported pEC50 greater than or equal to 7: criterion met. Reported pEC50 below: criterion not met.

- compound: "Cn1cc(-c2ccc(Cc3cc(C(=O)N[C@H]4CCCC[C@@H]4O)c(F)c4ccccc34)cn2)cn1 (racemic)"
  cat: "criterion met"
- compound: "Cn1cc(-c2ccc(Cc3cc(C(=O)N[C@H]4CCCC[C@@]4(C)O)c(F)c4ccccc34)cn2)cn1 (racemic)"
  cat: "criterion met"
- compound: "Cc1ccc(Cc2cc(C(=O)N[C@H]3CCOC[C@@H]3O)c(F)c3ccccc23)cc1 (racemic)"
  cat: "criterion not met"
- compound: "O=C(N[C@H]1CCC[C@@H]1O)c1cc(Cc2ccc(Cl)nc2)c2ccccc2c1F"
  cat: "criterion not met"
- compound: "Cn1cc(-c2ccc(Cc3cc(C(=O)N[C@H]4CCOC[C@@H]4O)c(F)c4ccccc34)cc2)cn1 (racemic)"
  cat: "criterion met"
- compound: "Cn1cc(-c2ccc(Cc3cc(C(=O)N[C@H]4CCOC[C@@H]4O)c(F)c4ccccc34)c(F)c2)cn1 (racemic)"
  cat: "criterion met"
- compound: "Cn1cc(-c2ccc(Cc3cc(C(=O)N[C@H]4COCC[C@@H]4O)c(F)c4ccccc34)cn2)cn1"
  cat: "criterion met"
- compound: "O=C(N[C@@H]1CCOC[C@H]1O)c1cc(Cc2ccc(Cl)nc2)c2ccccc2c1F (stereo in doubt)"
  cat: "criterion met"
- compound: "N#CC1(c2ccccn2)CCN(Cc2cc(C(=O)N[C@H]3CCCC[C@@H]3O)c(F)c3ccccc23)CC1"
  cat: "criterion not met"
- compound: "Cc1ccc(Cc2cc(C(=O)N[C@H]3CCCC[C@@H]3O)c(F)c3ccccc23)cn1 (racemic)"
  cat: "criterion not met"
- compound: "O=C(N[C@H]1CCOC[C@@H]1O)c1cc(Cc2ccccc2)c2ccccc2c1F (racemic)"
  cat: "criterion not met"
- compound: "O=C(N[C@H]1CCCC[C@@H]1O)c1cc(Cc2ccc(C3CC3)nc2)c2ccccc2c1F"
  cat: "criterion not met"
- compound: "Cn1cc(-c2ccc(Cc3cc(C(=O)N[C@H]4CCOC[C@@H]4O)c(F)c4ccccc34)cn2)cn1 (racemic) [Example 18]"
  cat: "criterion met"
- compound: "Cn1cc(-c2ccc(Cc3cc(C(=O)N[C@H]4CCOC[C@@H]4O)c(F)c4ccccc34)cn2)cn1 [Example 20]"
  cat: "criterion met"
- compound: "O=C(N[C@H]1CCOC[C@@H]1O)c1cc(Cc2ccc(Cl)cc2)c2ccccc2c1F (racemic)"
  cat: "criterion not met"
